B1: TRIM43 (parent)
chain: NNSWIRKNSTMVNSEDIFLLLCLK

# Variants of: B1
# METHOD: protein stability index of a GFP-peptide fusion (GPS, HEK-293T) (PSI 1-6); higher = more stable;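 further: lentivirally expressed fusions sorted by FACS into six bins by GFP to DsRed ratio, PSI derived from sequencing read proportions per bin multiplied by bin number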
# RUN PARAMETERS: c terminus: a fixed tail appended
protein stability index values, listed per item
The answer should be written as a number, with no unit following it.

Example variants with recorded protein stability index:
MUT	OBSERVATION TYPE	MEASURED RESULT
N13S	protein stability index	2.96
W4H	protein stability index	3
T10Q	protein stability index	3.06

Lab note: next variant to report on.
Query: What measured protein stability index goes with `M11G` ?
Reply: 3.08
